Provide the recorded Amount of related substances (%; after 12 weeks) for the entries that follow.
assay: Stability in aqueous solution, amount of related substances under long-term storage conditions; format: physicochemical; conditions: glass vial, 25° C., 75% RH
Non-standard residues stand in square brackets, D forms with d. Residues, ends and D or L forms follow the SMILES beside them. ξ: configuration not given here. Hyp = O=C(O)[C@@H]1C[C@@H](O)CN1; Thr(3ξ) = CC(O)[C@H](N)C(=O)O

[in] Value lookup for Amount of related substances (%; after 12 weeks); key = COC(=O)C[C@H](NC(=O)[C@H](CCC(N)=O)NC(=O)CNC(=O)[C@@H]1C[C@@H](O)CN1)C(=O)NCC(=O)N[C@@H](CC(C)C)C(=O)N[C@@H](C)C(=O)NCC(=O)N1CCC[C@H]1C(=O)N[C@@H](CCCCN)C(=O)O [YDE-027] (H-[Hyp]GQD(OMe)GLAGPK-OH)
[out] 12.74%

[in] Value lookup for Amount of related substances (%; after 12 weeks); key = CC(C)C[C@H](NC(=O)CNC(=O)[C@H](Cc1ccccc1)NC(=O)[C@H](CCC(N)=O)NC(=O)CNC(=O)[C@@H]1C[C@@H](O)CN1)C(=O)N[C@@H](C)C(=O)NCC(=O)N1CCC[C@H]1C(=O)N[C@@H](CCCCN)C(=O)O [YDE-012, HyP-Gly-Gln-Phe-Gly-Leu-Ala-Gly-Pro-Lys] (H-[Hyp]GQFGLAGPK-OH)
[out] 3.57%

[in] Value lookup for Amount of related substances (%; after 12 weeks); key = CC(C)C[C@H](NC(=O)CNC(=O)[C@@H](NC(=O)[C@H](CCC(N)=O)NC(=O)CNC(=O)[C@@H]1C[C@@H](O)CN1)C(C)O)C(=O)N[C@@H](C)C(=O)NCC(=O)N1CCC[C@H]1C(=O)N[C@@H](CCCCN)C(=O)O (stereo partly drawn) [YDE-007, HyP-Gly-Gln-Thr-Gly-Leu-Ala-Gly-Pro-Lys] (H-[Hyp]GQ[Thr(3ξ)]GLAGPK-OH)
[out] 3.76%
